- assay.text: yeast display, Sf9 membrane polyspecificity reagent, FACS + sequencing; frameworks hold sequencing errors
outcome.measure: polyreactivity (PSR sort gate)

Recorded polyreactivity (PSR sort gate), per entry:
biosequence	polyreactivity (PSR sort gate)
QVQLVESGGGLVQAGGSLRLSCAASGSIFRNYAMGWYRQAPGKERELVATIRYRGGRTYADSVKGRFTISRDNAKNTVYLQMNRLKPEDTAFYYCNTYARYAYLTGRMDYWGQGTQVTVSS	high polyreactivity
QVQLVESGGGLVQAGGSLRLSCAASGFIFRGYTMGWYRQAPGKERELVAAITTTSSTYYADSVKGRFTISRDNAKNTVYLQMNSLKPEDTAVYYCAALFYRYGYLYNYWGQGTQVTVSS	high polyreactivity
QVQLVESGGGLVQAGGRLRLSCAASGSTIKFNAMGWYRQAPGKERELVAAISRGGRTNYADSVKGRFTISRDNAKYTVYLQMNSLKPEDTAVYKCAKDVAGLFHVGALYYYWGQGTQVTVSS	low polyreactivity
QVQLQESRGGLVQAGGSLRLSCAASGSITHYIFMGWYRQAPGKEREFVAGIGYGGTTNYADSVKGRFTISRDNAKNTVFLQMNSLKPEDTAMYYCAAREATEFYLYYWGQGTQVTVSS	low polyreactivity

Let us examine a further case.
polyreactivity (PSR sort gate) recorded for this sequence, QVQLVESGGGLVQAGGSLRLSCAASGSTFVGYAMGWYRQAPGKEREVVAAISGSGTSTYYADSVKGRFTISRDNAKNTVYLQMNSLKPEDTAVYYCNSDPIFVYSSYNYWGQGTQVTVSS , is low polyreactivity

Data provenance is the nanobody polyreactivity screen of Harvey et al. (2022).
